# SYSTEM: Delta Opioid Receptor (Rattus norvegicus, UniProt P33533)
# Construct: the forebrains were homogenized in Tris buffer in a Teflon®-glass homogenizer; from tissue; host or cells: forebrain of male Wistar rats, particulate membrane preparation
# Sequence (P33533 whole entry): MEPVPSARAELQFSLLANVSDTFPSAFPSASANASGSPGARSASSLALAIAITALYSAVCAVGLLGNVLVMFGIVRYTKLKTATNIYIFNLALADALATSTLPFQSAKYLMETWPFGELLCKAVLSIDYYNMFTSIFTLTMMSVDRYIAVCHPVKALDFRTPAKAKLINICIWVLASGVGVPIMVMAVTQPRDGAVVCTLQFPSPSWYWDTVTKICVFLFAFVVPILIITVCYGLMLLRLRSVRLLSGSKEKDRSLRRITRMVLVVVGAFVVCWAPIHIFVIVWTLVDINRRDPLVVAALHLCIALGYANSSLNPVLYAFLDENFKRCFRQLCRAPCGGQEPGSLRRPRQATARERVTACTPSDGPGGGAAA
# ASSAY DETAILS: Rat brain delta opioid receptor binding assay ([3H]DPDPE or [3H]naltrindole)
# CONDITION NOTES: rat forebrain membranes, ~4 nM [3H]DPDPE; read-out: δ-binding (DPDPE ligand) Ki
Please respond with reported Ki for every item in the list.
I only need the number, in µM, no unit after it.

Task item: Please indicate Ki recorded for COc1ccc(Oc2ccc(NC[C@@H]3CCCN3)c(Oc3ccc(OC)cc3)c2)cc1
Reply: 0.105

Task item: Provide one value: measured Ki of COc1ccc(Oc2ccc(NCC3CCCNC3)c(Oc3ccc(OC)cc3)c2)cc1 (racemic)
Reply: 0.111

Task item: Tell me Ki reported for COc1ccc(Oc2ccc(NC3CCNCC3)c(Oc3ccc(OC)cc3)c2)cc1
Reply: 1.73

Task item: Provide only the value of recorded Ki for COc1ccc(Oc2ccc(NC3CCCNC3)c(Oc3ccc(OC)cc3)c2)cc1 (racemic)
Reply: 0.492

----------
Would you kindly list Ki for each of these molecules?
# SYSTEM: Mu Opioid Receptor (Rattus norvegicus)
# Construct: the forebrains were homogenized in Tris buffer in a Teflon®-glass homogenizer; from tissue; host or cells: forebrain of male Wistar rats, particulate membrane preparation
# Sequence (P33535 whole entry): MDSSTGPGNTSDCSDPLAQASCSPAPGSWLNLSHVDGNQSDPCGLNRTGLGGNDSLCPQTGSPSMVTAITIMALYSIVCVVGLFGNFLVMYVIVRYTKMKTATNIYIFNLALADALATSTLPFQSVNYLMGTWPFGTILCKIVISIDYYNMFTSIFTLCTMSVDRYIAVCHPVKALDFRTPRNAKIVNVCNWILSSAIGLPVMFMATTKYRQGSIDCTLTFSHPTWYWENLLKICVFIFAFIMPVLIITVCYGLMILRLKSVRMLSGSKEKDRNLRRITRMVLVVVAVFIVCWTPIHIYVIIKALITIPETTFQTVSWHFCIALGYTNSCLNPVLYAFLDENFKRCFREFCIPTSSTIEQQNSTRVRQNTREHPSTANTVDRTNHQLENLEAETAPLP
# ASSAY DETAILS: Rat brain mu opioid receptor binding assay ([3H]DAMGO)
All answers are understood in µM, so give the number only.

Task item: Complete the entry with Ki for CCN(CC)C(=O)c1ccc(Oc2cc(-c3ccccc3)ccc2NC[C@@H]2CCCN2)cc1
Reply: 9.3

Task item: Return Ki (reported value) for this molecule: COc1ccc(Oc2cc(-c3cccnc3)ccc2NC[C@@H]2CCCN2)cc1
Reply: 3.11

Task item: Provide one value: measured Ki of COc1ccc(Oc2ccc(NC3CCCC(N)C3)c(Oc3ccc(OC)cc3)c2)cc1 (stereo not drawn)
Reply: 1.64
